Hey, just so you know, these numbers are from patent US20220017512A1.

- System: Recombinant human TRKA (Homo sapiens, UniProt P04629)
- Sequence (P04629 33-796): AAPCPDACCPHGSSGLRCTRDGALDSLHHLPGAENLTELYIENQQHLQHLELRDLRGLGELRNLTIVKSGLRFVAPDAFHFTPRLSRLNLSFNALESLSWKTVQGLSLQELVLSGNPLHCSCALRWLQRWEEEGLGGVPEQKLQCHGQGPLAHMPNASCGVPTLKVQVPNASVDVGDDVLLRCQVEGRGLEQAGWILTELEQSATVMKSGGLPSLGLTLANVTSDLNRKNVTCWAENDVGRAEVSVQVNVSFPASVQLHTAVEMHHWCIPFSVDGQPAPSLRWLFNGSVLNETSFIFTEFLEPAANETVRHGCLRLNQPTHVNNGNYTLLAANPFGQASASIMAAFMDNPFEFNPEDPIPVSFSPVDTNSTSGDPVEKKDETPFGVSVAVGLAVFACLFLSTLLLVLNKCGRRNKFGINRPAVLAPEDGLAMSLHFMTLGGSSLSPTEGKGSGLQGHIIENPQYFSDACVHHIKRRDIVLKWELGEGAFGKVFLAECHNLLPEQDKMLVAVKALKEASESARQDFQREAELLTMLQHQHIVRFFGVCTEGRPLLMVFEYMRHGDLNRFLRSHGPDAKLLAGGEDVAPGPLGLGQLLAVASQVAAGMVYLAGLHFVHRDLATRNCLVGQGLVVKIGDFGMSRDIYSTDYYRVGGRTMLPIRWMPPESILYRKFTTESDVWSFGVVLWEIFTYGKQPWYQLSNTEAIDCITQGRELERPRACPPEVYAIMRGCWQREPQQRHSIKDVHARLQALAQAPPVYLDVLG
- Experimental protocol: In vitro activity test on TRKA kinase (HTRF KinEASE TK)
- Condition set: 14.68 μM ATP, 40 min
Catalogue of molecules with associated IC50

// IC50 value for Fc1ccc(F)c([C@H]2C[C@H](F)CN2c2ccc3ncc(Cl)c(-c4nnc(C5CCNCC5)o4)c3n2)c1 : < 1 nM

// IC50 value for Fc1ccc(F)c([C@H]2C[C@H](F)CN2c2ccc3ncc(Cl)c(-c4cn(C5CCNCC5)nn4)c3n2)c1 : < 1 nM

// IC50 value for O[C@H]1CCN(c2cnn(-c3ncnc4ccc(N5C[C@@H](F)C[C@@H]5c5cc(F)ccc5F)nc34)c2)C1 : < 1 nM

// IC50 value for CS(=O)(=O)n1cc(-c2c(Cl)cnc3ccc(N4C[C@@H](F)C[C@@H]4c4cc(F)ccc4F)nc23)cn1 : < 10 nM

// IC50 value for CN1CC(n2cc(-c3c(Cl)cnc4ccc(N5C[C@@H](F)C[C@@H]5c5cc(F)ccc5F)nc34)cn2)C1 : < 1 nM

// IC50 value for Fc1ccc(F)c([C@H]2C[C@H](F)CN2c2ccc3ncc(Cl)c(-c4ccn(C5CCNCC5)c4)c3n2)c1 : < 1 nM

// IC50 value for Fc1ccc(F)c([C@H]2C[C@H](F)CN2c2ccc3ncc(Cl)c(-c4cnc(N5CCOCC5)s4)c3n2)c1 : < 10 nM

====

- System: recombinant human TRKA (G667C) (Homo sapiens, UniProt P04629, G667C)
- Sequence (P04629 33-796 G667C): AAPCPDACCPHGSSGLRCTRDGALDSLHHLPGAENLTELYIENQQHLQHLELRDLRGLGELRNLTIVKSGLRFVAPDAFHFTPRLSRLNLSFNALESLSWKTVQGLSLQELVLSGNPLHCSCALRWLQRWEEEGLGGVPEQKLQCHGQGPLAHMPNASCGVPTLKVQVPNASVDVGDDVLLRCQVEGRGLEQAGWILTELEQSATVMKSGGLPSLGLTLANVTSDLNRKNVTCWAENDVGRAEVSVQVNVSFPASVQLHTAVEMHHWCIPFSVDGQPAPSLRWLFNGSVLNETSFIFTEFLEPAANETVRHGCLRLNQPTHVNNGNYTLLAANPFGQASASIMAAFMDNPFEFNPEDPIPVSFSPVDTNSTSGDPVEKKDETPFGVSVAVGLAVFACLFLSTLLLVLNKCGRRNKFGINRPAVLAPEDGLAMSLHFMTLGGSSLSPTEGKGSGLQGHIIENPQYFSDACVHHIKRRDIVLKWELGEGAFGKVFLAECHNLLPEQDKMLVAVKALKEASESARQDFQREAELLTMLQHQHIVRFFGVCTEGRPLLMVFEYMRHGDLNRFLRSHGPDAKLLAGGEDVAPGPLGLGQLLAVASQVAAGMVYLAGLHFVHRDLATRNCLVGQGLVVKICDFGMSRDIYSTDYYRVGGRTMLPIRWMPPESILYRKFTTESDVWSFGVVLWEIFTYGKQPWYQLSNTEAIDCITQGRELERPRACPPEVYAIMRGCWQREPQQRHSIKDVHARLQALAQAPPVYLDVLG
- Experimental protocol: In vitro activity test on mutant TRKA (G667C) (HTRF KinEASE TK)
- Condition set: 5.5 μM ATP, 30 min
Endpoint label: IC50

                                   compound                                    system  observed_result
0  O[C@H]1CCN(c2ncnc3ccc(N4C[C@@H](F)C[C@@H]4c4cc(F)ccc4F)nc23)C1  recombinant human TRKA (G667C) (Homo sapiens, UniProt P04629, G667C)          < 10 nM
1  Fc1ccc(F)c([C@H]2C[C@H](F)CN2c2ccc3ncc(F)c(-c4cnn(C5CCNCC5)c4)c3n2)c1  recombinant human TRKA (G667C) (Homo sapiens, UniProt P04629, G667C)           < 1 nM
2  Fc1ccc(F)c([C@H]2C[C@H](F)CN2c2ccc3ncc(Cl)c(-c4cnn([C@@H]5CCCNC5)c4)c3n2)c1  recombinant human TRKA (G667C) (Homo sapiens, UniProt P04629, G667C)          < 10 nM
3  CC1(O)CC(n2cc(-c3c(Cl)cnc4ccc(N5C[C@@H](F)C[C@@H]5c5cc(F)ccc5F)nc34)cn2)C1 (some centres unmarked)  recombinant human TRKA (G667C) (Homo sapiens, UniProt P04629, G667C)          < 10 nM
4  Fc1ccc(F)c([C@H]2CCCN2c2ccc3ncc(Cl)c(-c4cnn(C5CCNCC5)c4)c3n2)c1  recombinant human TRKA (G667C) (Homo sapiens, UniProt P04629, G667C)          < 10 nM

Now for another entry.
// IC50 value for O[C@H]1CCN(c2ncc(-c3ncnc4ccc(N5C[C@@H](F)C[C@@H]5c5cc(F)ccc5F)nc34)cn2)C1 : < 10 nM

====

Catalogue of compounds with associated IC50
- System: Recombinant human TRKC (Homo sapiens, UniProt Q16288)
- Sequence (Q16288 32-839): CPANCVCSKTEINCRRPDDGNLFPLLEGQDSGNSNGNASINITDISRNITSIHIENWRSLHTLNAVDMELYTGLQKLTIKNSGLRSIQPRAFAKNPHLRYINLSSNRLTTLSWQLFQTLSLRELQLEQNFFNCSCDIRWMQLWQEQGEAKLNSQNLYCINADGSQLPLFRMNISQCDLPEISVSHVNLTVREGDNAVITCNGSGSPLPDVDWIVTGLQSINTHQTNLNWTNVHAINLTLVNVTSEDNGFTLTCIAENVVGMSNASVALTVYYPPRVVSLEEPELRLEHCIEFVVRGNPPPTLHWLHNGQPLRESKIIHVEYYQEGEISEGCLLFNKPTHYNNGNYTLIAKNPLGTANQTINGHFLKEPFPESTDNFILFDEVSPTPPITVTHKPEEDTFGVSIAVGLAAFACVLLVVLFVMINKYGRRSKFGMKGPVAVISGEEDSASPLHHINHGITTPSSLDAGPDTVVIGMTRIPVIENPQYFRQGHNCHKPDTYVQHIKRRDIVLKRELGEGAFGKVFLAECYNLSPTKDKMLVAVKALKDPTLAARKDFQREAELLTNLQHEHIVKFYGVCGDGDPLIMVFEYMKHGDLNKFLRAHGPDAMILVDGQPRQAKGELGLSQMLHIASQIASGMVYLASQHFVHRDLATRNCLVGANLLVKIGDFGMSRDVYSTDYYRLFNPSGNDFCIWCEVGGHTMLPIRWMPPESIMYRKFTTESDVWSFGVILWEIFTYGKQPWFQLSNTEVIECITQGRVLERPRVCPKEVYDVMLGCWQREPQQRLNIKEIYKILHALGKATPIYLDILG
- Experimental protocol: In vitro activity test on TRKC kinase (HTRF KinEASE TK)
- Condition set: 25.64 μM ATP, 40 min

                                   compound                                    system  observed_result
0  CN1CC(n2cc(-c3c(Cl)cnc4ccc(N5C[C@@H](F)C[C@@H]5c5cc(F)ccc5F)nc34)cn2)C1  Recombinant human TRKC (Homo sapiens, UniProt Q16288)          < 10 nM
1  Fc1ccc(F)c([C@H]2C[C@H](F)CN2c2ccc3ncc(Cl)c(-c4cnn([C@H]5CCNC5)c4)c3n2)c1  Recombinant human TRKC (Homo sapiens, UniProt Q16288)           < 1 nM
2  OC1CCC(Nc2ccnc3ccc(N4CCC[C@@H]4c4cc(F)ccc4F)nc23)C1 (stereo partly shown)  Recombinant human TRKC (Homo sapiens, UniProt Q16288)          < 10 nM
3  O=c1n(-c2ncnc3ccc(N4C[C@@H](F)C[C@@H]4c4cc(F)ccc4F)nc23)ccn1C1CCNCC1  Recombinant human TRKC (Homo sapiens, UniProt Q16288)          < 10 nM
4  CC1(O)CCN(c2ncc(-c3ncnc4ccc(N5C[C@@H](F)C[C@@H]5c5cc(F)ccc5F)nc34)cn2)C1 (stereo partly shown)  Recombinant human TRKC (Homo sapiens, UniProt Q16288)           < 1 nM
5  Fc1ccc(F)c([C@H]2C[C@H](F)CN2c2ccc3ncc(Cl)c(-c4cnc(N5CCNCC5)s4)c3n2)c1  Recombinant human TRKC (Homo sapiens, UniProt Q16288)           < 1 nM

Now for another entry.
// IC50 value for COc1ccc(F)cc1[C@H]1CCCN1c1ccc2ncc(Cl)c(-c3cnn(C4CCNCC4)c3)c2n1 : < 50 nM

====

- System: recombinant human TRKA (G595R) (Homo sapiens, UniProt P04629, G595R)
- Sequence (P04629 33-796 G595R): as the sequence (P04629 33-796 G667C) above, with G563R, C635G counted along it
- Experimental protocol: In vitro activity test on mutant TRKA (G595R) (HTRF KinEASE TK)
- Condition set: 4.5 μM ATP, 30 min
pIC50: −log10 of the molar value.
Catalogue of compounds with associated pIC50

# example entries with known answers
>>> print(df.to_string())
                                   compound  observed_result
0  Fc1ccc(F)c([C@H]2C[C@H](F)CN2c2ccc3ncc(Cl)c(-c4cn(C5CCNCC5)nn4)c3n2)c1 [Example 67]           > 8.00
1  CC1(O)CC(n2cc(-c3c(Cl)cnc4ccc(N5C[C@@H](F)C[C@@H]5c5cc(F)ccc5F)nc34)cn2)C1 (stereo partly shown) [Example 39]           > 8.00
2  OC[C@@H](O)CN1CCC(n2cc(-c3c(Cl)cnc4ccc(N5C[C@@H](F)C[C@@H]5c5cc(F)ccc5F)nc34)cn2)CC1 [Example 44]           > 8.00
3  CC(C)N1CCC(n2cc(-c3ccnc4ccc(N5C[C@@H](F)C[C@@H]5c5cc(F)ccc5F)nc34)cn2)CC1 [Example 14]           > 9.00
4  O=C(O)[C@@H]1CCN(c2ncc(-c3ncnc4ccc(N5C[C@@H](F)C[C@@H]5c5cc(F)ccc5F)nc34)cn2)C1 [Example 88]           > 9.00

The measured pIC50 that Fc1ccc(F)c([C@H]2CCCN2c2ccc3nccc(-c4cnn(C5CCNCC5)c4)c3n2)c1 [Example 7] showed for recombinant human TRKA (G595R) (Homo sapiens, UniProt P04629, G595R) is > 9.00

The measured pIC50 that Fc1ccc(F)c([C@H]2C[C@H](F)CN2c2ccc3ncc(F)c(-c4cnn(C5CNC5)c4)c3n2)c1 [Example 29] showed for recombinant human TRKA (G595R) (Homo sapiens, UniProt P04629, G595R) is > 9.00

====

- System: recombinant human TRKA (G667C) (Homo sapiens, UniProt P04629, G667C)
- Experimental protocol: In vitro activity test on mutant TRKA (G667C) (HTRF KinEASE TK)
- Condition set: 5.5 μM ATP, 30 min
pIC50: −log10 of the molar value.
Endpoint label: pIC50

# example entries with known answers
>>> df
                                   compound  endpoint_label  observed_result
0  Fc1ccc(F)c([C@H]2C[C@H](F)CN2c2ccc3ncc(Cl)c(-c4cnn([C@H]5CCNC5)c4)c3n2)c1           pIC50           > 8.00
1  OC[C@@H](O)CN1CCC(n2cc(-c3c(Cl)cnc4ccc(N5C[C@@H](F)C[C@@H]5c5cc(F)ccc5F)nc34)cn2)CC1           pIC50           > 9.00
2  COc1ncc(F)cc1[C@H]1CCCN1c1ccc2ncc(Cl)c(-c3cnn(C4CCNCC4)c3)c2n1           pIC50           > 8.00

The measured pIC50 that CC1(C)CC(n2cc(-c3ccnc4ccc(N5C[C@@H](F)C[C@@H]5c5cc(F)ccc5F)nc34)cn2)CCN1 (stereo partly shown) showed for recombinant human TRKA (G667C) (Homo sapiens, UniProt P04629, G667C) is > 8.00

The measured pIC50 that Fc1ccc(F)c([C@H]2C[C@H](F)CN2c2ccc3nccc(-c4cnn(C5CCOCC5)c4)c3n2)c1 showed for recombinant human TRKA (G667C) (Homo sapiens, UniProt P04629, G667C) is > 9.00

The measured pIC50 that NC(=O)c1cnc2ccc(N3C[C@@H](F)C[C@@H]3c3cc(F)ccc3F)nc2c1-c1cnn(C2CCNCC2)c1 showed for recombinant human TRKA (G667C) (Homo sapiens, UniProt P04629, G667C) is > 7.30

The measured pIC50 that O[C@H]1CCN(c2cnn(-c3ncnc4ccc(N5C[C@@H](F)C[C@@H]5c5cc(F)ccc5F)nc34)c2)C1 showed for recombinant human TRKA (G667C) (Homo sapiens, UniProt P04629, G667C) is > 8.00
